Experiment: hydrolysis in aqueous acidic medium (simulated gastro-intestinal juices), HPLC
Type: physicochemical
Conditions: 60 min; THF: aqueous conc. HCl 1:1, 37° C.; read-out: Ester (%)

| COMPOUND | READOUT_UNIT | remaining at 1 h |
| --- | --- | --- |
| CCOC(=O)OC(C)OC(=O)c1ccccc1OC(C)=O (stereo not shown) | % | 92 |

* * *

Experiment: hydrolysis in aqueous acidic medium (simulated gastro-intestinal juices), HPLC
Assay type: physicochemical
Conditions: 120 min; THF: aqueous conc. HCl 1:1, 37° C.; read-out: Ester (%)

| MOLECULE | remaining at 2 h (%) |
| --- | --- |
| CCOC(=O)OC(C)OC(=O)c1ccccc1OC(C)=O (stereo not shown) [Aspirin-ECOE ester] | 90 |
